Molecular target: CBP (Homo sapiens)
Construct: endogenous in cells; host or cells: 22Rv1 (ATCC CRL-2505) human prostate cancer cells
Sequence (Q92793 whole entry): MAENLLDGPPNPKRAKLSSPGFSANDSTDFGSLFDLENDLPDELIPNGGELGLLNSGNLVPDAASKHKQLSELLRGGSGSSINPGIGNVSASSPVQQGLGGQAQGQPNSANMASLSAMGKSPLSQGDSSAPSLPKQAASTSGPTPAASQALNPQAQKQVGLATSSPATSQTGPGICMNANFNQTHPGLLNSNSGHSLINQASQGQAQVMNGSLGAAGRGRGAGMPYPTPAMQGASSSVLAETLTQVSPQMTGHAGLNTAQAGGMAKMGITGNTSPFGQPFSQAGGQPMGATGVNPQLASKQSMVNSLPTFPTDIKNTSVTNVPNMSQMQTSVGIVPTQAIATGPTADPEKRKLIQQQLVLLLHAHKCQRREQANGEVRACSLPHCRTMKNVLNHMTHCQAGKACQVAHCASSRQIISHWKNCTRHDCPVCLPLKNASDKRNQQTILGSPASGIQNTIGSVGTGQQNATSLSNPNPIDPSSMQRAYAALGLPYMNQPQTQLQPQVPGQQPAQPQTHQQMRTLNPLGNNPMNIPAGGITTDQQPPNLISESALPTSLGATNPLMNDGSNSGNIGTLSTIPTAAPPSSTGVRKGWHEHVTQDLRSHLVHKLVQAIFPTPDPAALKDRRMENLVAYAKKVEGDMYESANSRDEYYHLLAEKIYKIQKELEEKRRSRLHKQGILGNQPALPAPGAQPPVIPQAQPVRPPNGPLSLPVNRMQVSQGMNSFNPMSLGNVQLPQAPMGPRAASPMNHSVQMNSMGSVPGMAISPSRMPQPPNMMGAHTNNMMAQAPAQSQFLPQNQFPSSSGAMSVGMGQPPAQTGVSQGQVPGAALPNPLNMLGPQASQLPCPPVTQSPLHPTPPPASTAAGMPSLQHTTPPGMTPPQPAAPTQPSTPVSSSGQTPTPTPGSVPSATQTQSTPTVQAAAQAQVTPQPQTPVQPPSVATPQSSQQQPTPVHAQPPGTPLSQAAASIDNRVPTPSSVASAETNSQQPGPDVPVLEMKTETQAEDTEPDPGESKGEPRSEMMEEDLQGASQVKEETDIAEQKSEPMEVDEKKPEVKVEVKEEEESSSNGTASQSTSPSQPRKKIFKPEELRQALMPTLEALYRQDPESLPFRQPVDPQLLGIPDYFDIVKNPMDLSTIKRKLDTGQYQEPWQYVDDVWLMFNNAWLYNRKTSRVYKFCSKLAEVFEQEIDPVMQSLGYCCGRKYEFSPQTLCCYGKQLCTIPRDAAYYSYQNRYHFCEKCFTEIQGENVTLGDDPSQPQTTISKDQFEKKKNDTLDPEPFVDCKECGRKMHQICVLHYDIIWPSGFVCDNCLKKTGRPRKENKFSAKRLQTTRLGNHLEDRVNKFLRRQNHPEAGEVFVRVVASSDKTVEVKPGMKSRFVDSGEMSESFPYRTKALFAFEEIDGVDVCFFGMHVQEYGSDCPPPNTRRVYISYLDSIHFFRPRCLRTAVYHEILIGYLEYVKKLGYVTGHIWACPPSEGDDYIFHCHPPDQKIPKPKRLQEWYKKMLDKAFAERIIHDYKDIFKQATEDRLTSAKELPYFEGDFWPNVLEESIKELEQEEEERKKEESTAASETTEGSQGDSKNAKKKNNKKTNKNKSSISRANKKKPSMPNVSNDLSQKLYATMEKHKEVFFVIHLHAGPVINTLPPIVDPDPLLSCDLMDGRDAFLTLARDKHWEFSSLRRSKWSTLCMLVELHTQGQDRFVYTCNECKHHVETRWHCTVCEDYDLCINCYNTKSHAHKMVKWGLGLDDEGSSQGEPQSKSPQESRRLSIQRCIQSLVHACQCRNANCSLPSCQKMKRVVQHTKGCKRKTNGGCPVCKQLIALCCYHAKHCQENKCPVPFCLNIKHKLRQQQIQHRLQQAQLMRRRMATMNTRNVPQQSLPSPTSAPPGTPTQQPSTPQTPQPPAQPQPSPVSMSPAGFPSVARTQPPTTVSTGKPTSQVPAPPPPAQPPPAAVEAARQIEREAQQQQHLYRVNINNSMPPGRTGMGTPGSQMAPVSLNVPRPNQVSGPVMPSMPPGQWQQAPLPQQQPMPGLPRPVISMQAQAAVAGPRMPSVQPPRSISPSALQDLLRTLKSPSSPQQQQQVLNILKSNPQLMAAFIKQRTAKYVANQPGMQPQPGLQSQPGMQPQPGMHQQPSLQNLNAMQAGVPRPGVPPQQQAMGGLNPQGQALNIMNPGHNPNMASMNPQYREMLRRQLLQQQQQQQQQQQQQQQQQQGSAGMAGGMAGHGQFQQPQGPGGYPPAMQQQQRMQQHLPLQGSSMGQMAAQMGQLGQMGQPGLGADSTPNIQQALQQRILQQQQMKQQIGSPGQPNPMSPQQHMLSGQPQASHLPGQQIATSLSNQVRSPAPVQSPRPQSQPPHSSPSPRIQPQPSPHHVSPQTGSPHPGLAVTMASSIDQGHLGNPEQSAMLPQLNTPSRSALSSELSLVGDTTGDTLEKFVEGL
Assay: CBP degradation in 22Rv1 cells (5 h)
Type: cell-based
Conditions: 22Rv1 cells, 5 h
readout type: DC50

compound: CC(=O)N1CCc2c(c(N3CCCc4cc5c(cc43)CCCC5)nn2C2CCN(C(=O)CN3Cc4cc5c(cc4C3)C(=O)N(C3CCC(=O)NC3=O)C5=O)CC2)C1 (stereo not drawn) [CP-077]
readout type: DC50
value measured: < 10 nM
//
compound: CC(=O)N1CCc2c(c(N3CCCc4cc(-c5cnn(C)c5)c(C(F)F)cc43)nn2C2CCN(C(=O)CCCN3Cc4cc5c(cc4C3)C(=O)N(C3CCC(=O)NC3=O)C5=O)CC2)C1 (stereo not drawn) [CP-008]
readout type: DC50
value measured: < 10 nM
//
compound: CC(=O)N1CCc2c(c(N3CCCc4cc(-c5cnn(C)c5)c(C(F)F)cc43)nn2[C@H]2CC[C@H](CN3CCc4cc5c(cc4C3)C(=O)N(C3CCC(=O)NC3=O)C5=O)CC2)C1 (stereo partly drawn) [CP-049]
readout type: DC50
value measured: < 10 nM
